Answer each item with its documented IC50.
# MEASURED_ON: MurA (EPT E coli) (Escherichia coli)
# Construct: made in house
# TEST: Kinetic IC50 assay of MurA inhibition (Malachite Green), EPT E coli
# Assay type: biochemical

O=C(Oc1ccc(-c2ccccc2)cc1[N+](=O)[O-])c1cccc2c1NC(C(=O)O)C1CC=CC21 (centres unmarked): 30 to 50 µM

Moving on to the next compound.
Recorded IC50 of O=C(Oc1ccc([N+](=O)[O-])cc1)c1cccc2c1NC(C(=O)O)C1CC=CC21 (centres unmarked) , please.
180 to 200 µM

* * *

# MEASURED_ON: MurA (EPT E coli) (Escherichia coli, UniProt P0A749)
# Construct: made in house
# Sequence (P0A749 whole entry): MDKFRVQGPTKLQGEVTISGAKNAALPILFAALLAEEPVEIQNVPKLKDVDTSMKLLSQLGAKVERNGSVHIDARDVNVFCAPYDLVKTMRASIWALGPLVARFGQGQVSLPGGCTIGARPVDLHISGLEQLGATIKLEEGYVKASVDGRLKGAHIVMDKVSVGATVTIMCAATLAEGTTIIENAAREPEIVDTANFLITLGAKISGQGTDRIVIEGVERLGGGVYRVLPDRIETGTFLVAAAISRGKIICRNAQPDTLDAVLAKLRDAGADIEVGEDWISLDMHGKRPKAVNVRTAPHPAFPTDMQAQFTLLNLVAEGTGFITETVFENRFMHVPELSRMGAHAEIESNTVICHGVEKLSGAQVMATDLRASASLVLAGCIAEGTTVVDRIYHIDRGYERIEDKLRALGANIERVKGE
# TEST: Kinetic IC50 assay of MurA inhibition (Malachite Green), EPT E coli
# Assay type: biochemical
# STUDY_CONDITIONS: MurA enzyme, E coli; values given as ranges; read-out: IC50 EPT E coli
pIC50: −log10 of the molar value.
METRIC_NAME: pIC50

Parameters: items (list). Returns: pIC50 for each item.
1. COc1ccc(OC(=O)c2cccc3c2NC(C(=O)O)C2CC=CC32)cc1 (centres unmarked)
2. O=C(Nc1ccc(Cl)cc1)c1cccc2c1NC(C(=O)O)C1CC=CC21 (centres unmarked)
3. O=C(Oc1ccccc1)c1cccc2c1NC(C(=O)O)C1CC=CC21 (centres unmarked)
4. O=C(Nc1ccc(-c2ccccc2)cc1)c1cccc2c1NC(C(=O)O)C1CC=CC21 (centres unmarked)
5. O=C(O)C1Nc2cc(C(F)(F)F)ccc2C2C=CCC12 (centres unmarked)

1: 5.00 to 6.00; 2: < 3.70; 3: 4.30 to 4.52; 4: 4.00 to 4.30; 5: 3.70 to 3.82

// for each compound below, give its pIC50
1. N#Cc1cc(COc2cccc3c2NC(C(=O)O)C2CC=CC32)ccc1-c1ccccc1 (centres unmarked)
2. CCOC(=O)C1Nc2c(C(=O)Oc3ccc(-c4ccc(C#N)cc4)cc3)cccc2C2C=CCC12 (centres unmarked)
3. O=C(Oc1ccc(-c2ccccc2)cc1)c1cc(Cl)cc2c1NC(C(=O)O)C1CC=CC21 (centres unmarked)

1: < 3.70; 2: < 3.70; 3: 4.30 to 4.52
